B1: Hairpin Ribozyme (parent)
chain: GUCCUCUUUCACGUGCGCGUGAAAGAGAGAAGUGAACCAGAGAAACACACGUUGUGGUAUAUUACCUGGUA

Variants of: B1
Assay: self-cleavage, relative activity (ratio to wild type); higher = more cleavage; co-transcriptional
Readout Type: self-cleavage
In your answer, state the number alone without any accompanying words.

## Task Can you look up the measured self-cleavage of GUCCUCUUUCACGUGCUCGUGAAAGAGAGAAGUGAACAAGAGAAACACACGUUGUGGUAUAUUACCUGGUA for me?
## Result 0.136

## Task Try GUCGUCUUUCACGUGCGCGUGAAAGAGAGAAGUGAACCAGAGAAACUCACGUUGUGGUAUAUUACCUGGUA next.
## Result 0.0972

## Task Same thing, different variant: GUCCUCUUUCACGGGCGCGUGAAAGAGAGAAGUGAACCAAAGAAACACACGUUGUGGUAUAUUACCUGGUA
## Result 0.289

## Task What do we get for GUCCUCUUUCACGUGGGCGUGAAAGAGAGAAGUGAACCAGAGAUACACACGUUGUGGUAUAUUACCUGGUA ?
## Result 0.16

## Task Now the variant GUCCUCUUUCACGUGCGCGUGAAAGAGAGAAGUGAACCAGAGAAACACACGUUGUACUAUAUUACCUGGUA
## Result 0.128

## Task GUCCUCUUUCACGUGCGCGUGAAAGAGAGAAGUGAACCAGAGAAACACACGUUGUGGUAUAUUAAAUGGUA ?
## Result 0.15

## Task Another variant to look at: GUCCUCUUUCACGUGCGCGUGAAAGAGAGAAGUGAACCAGAGAAACACACGUUGUGGUAUGUUUCCUGGUA
## Result 0.202

## Task Can you check GUCCUCUUUCACGUGCGCGUCAAAGAGAGAAGUGAACCAGAGAAACCCACGUUGUGGUAUAUUACCUGGUA next?
## Result 0.254

## Task What do we get for GUCCUCUUUCACGUGCGCGGGAAAGAGAGAAGUGCACCAGAGAAACACACGUUGUGGUAUAUUACCUGGUA ?
## Result 0.976

## Task Ok, now GUCCUCUUUCAAGUGCGCGUGAAAGAGAGAAGUGAACCAGAGAUACACACGUUGUGGUAUAUUACCUGGUA
## Result 0.186

## Task Subsequent entry: GUACUCUUUCACGUGCGCGUGAAAGAGAGAAGUGAACCAGAGAAACACACGUUGUGGUAUAUUAGCUGGUA
## Result 0.314
